All values here come from PubChem BioAssay AID504834.

protocol_summary: Primary qHTS for delayed death inhibitors of the malarial parasite plastid, 96 hour incubation
run_parameters: P. falciparum luciferase reporter growth; series mostly up to 28.7 µM
About 22,000 (6.9%) of roughly 320,000 compounds were called active. Not shown: some 27% with an inconclusive outcome. Calls come from the whole dose curve; as a rule, active = well fitted inhibition curve with a large enough effect; inconclusive = small, poorly fitted or top-dose-only effect, or another doubt; inactive = no such curve, though single readings can be large or run the other way. What follows is part of a selection rich in actives, with near analogues and random picks from the rest.
Field 'call' accepts active, inactive

Query :: Just curious, what result did C[C@H](NC(=O)c1nc[nH]c1C(=O)NCC(=O)OC(C)(C)C)C(=O)OCc1ccccc1 get here?
Result :: inactive

Query :: Just curious, what result did CCOC(=O)c1cc(=O)c2ccc(OCc3ccccc3)cc2o1 get here?
Result :: inactive

Query :: Just curious, what result did CC(Sc1nn(-c2ccc(Cl)cc2)c(=S)s1)C(=O)NCC1CCCO1 (stereo not given) get here?
Result :: inactive

Query :: Just curious, what result did COc1ccccc1CNC(=O)C1CCN(S(=O)(=O)c2ccc3c(c2)CC(C)N3C(=O)C2CC2)CC1 (stereo not given) get here?
Result :: inactive

Query :: Just curious, what result did CCC1CCC2(CC1)NC(=O)N(CC(=O)Nc1ccc(OC)cc1)C2=O (stereo not given) get here?
Result :: inactive

Query :: Just curious, what result did Cc1ccc(CNC(=O)CCS(=O)(=O)c2ccc3c(c2)CC(C)N3C(=O)C2CC2)o1 (stereo not given) get here?
Result :: active

Query :: Just curious, what result did CCC(=O)N1c2ccc(S(=O)(=O)CCC(=O)N3CCN(c4ccccc4)CC3)cc2CC1C (stereo not given) get here?
Result :: inactive

Query :: Just curious, what result did COc1ccc(C(CNC(=O)COc2ccc([N+](=O)[O-])cc2)N2CCCCC2)cc1 (stereo not given) get here?
Result :: inactive

Query :: Just curious, what result did CC1CCN(c2c(NCc3ccc(C(=O)NCc4ccccc4)cc3)c(=O)c2=O)CC1 get here?
Result :: inactive

Query :: Just curious, what result did CCN1C(=O)C(=O)N(CC(=O)Nc2cc(C)ccc2C)C1=O get here?
Result :: inactive
